Data provenance is ChEMBL document CHEMBL5579788.

system: SARS-CoV-2; assay: Antiviral activity against wild type SARS-CoV-2 infected in Vero E6 cells assessed as inhibition of viral induced cytopathic effect incubated for 72 hrs by MTT assay; type: functional, organism-based; settings: Severe acute respiratory syndrome coronavirus 2, Vero C1008, 72 h
valueType: EC50

molecule="O=C(NC1CCCC1)C(=O)[C@H](CC1CCNC1=O)NC(=O)[C@@H]1[C@H]2CCC[C@H]2CN1C(=O)[C@@H](NC(=O)C(F)(F)F)C1CCCCC1 (stereo partly specified)" valuetype=EC50 reportedmeasurement="95 nM"

----------
target: Replicase polyprotein 1ab (Severe acute respiratory syndrome coronavirus 2, UniProt P0DTD1)
Below, each of the compounds is paired with its reported log10 IC50 value.
valueType: log10 IC50 (log10 of the value in µM)

compound="Cc1cc(C)cc(N2C(=O)C[n+]3ccccc3C2C(=O)Nc2ccc(Cl)cc2)c1 (configuration not stated)" reportedmeasurement=0.94
compound="O=C(Nc1ccccc1)C1c2cccc[n+]2CC(=O)N1c1ccccc1 (configuration not stated)" reportedmeasurement=0.72
compound="CCOc1ccc(NC(=O)C2c3cccc[n+]3CC(=O)N2c2ccccc2)cc1 (configuration not stated)" reportedmeasurement=0.70
compound="O=C(Nc1ccc(Cl)cc1)C1c2cccc[n+]2CC(=O)N1Cc1ccc2c(c1)OCO2 (configuration not stated)" reportedmeasurement=0.84
compound="Cc1ccc(N2C(=O)C[n+]3ccccc3C2C(=O)Nc2ccccc2C)cc1 (configuration not stated)" reportedmeasurement=0.79
compound="Cc1ccccc1NC(=O)C1c2cccc[n+]2CC(=O)N1C (configuration not stated)" reportedmeasurement=0.60
compound="O=C1C2C3C=CC(CO)(O3)C2C(=O)N1c1cc(C(F)(F)F)ccc1Cl (configuration not stated)" reportedmeasurement=0.64
compound=CC(C)(C)C(=O)N[C@H](C(=O)N1CC2(C[C@H]1C(=O)N[C@H](C#N)C[C@@H]1CCNC1=O)SCCS2)C(C)(C)C reportedmeasurement=-1.66
compound="O=C(Nc1ccccc1)C1c2cccc[n+]2CC(=O)N1c1ccc(Br)cc1 (configuration not stated)" reportedmeasurement=0.93
compound="Cc1ccccc1N1C(=O)C[n+]2ccccc2C1C(=O)Nc1ccccc1 (configuration not stated)" reportedmeasurement=0.75
compound="Cc1cccc(N2C(=O)C[n+]3ccccc3C2C(=O)Nc2ccccc2)c1 (configuration not stated)" reportedmeasurement=0.79
compound="Cc1cccc(C)c1NC(=O)C1c2cccc[n+]2CC(=O)N1C (configuration not stated)" reportedmeasurement=0.92
